Tested on: Ax20 peptidase (SEQ ID NO: 2)
Assay: Inhibition of Pro-Gly cleavage by recombinant Ax20 peptidase, fluorescamine detection of free NH2
Format: biochemical, Corynebacterium sp. Ax20
Details: test compound 31.25 microM; Pro-Gly 1 mM; 1 μg/ml peptidase; 60 min at 37° C.
resultType: Inhibition of release of free NH2 groups from Pro-Gly (% inhibition)
Numeric answer only, unit % inhibition assumed.

Some entries whose results are on file:
structureassmiles=O=C(O)CNCCNCC(=O)O outputunit="% inhibition" assayvalue=81.0
structureassmiles=O=C(O)CSCCSCC(=O)O outputunit="% inhibition" assayvalue=−2.6
structureassmiles=c1cnc2c(c1)ccc1cccnc12 outputunit="% inhibition" assayvalue=95.5
structureassmiles=O=C(O)CN(CCN(CC(=O)O)CC(=O)O)CC(=O)O outputunit="% inhibition" assayvalue=102.6

Query: Could you share which Inhibition of release of free NH2 groups from Pro-Gly value was measured for O=C(O)c1cccc(C(=O)O)n1 ?
Result: 92.4

Cited source for all entries: patent US10125356B2
